ASSAY COMMENT: Water solubility test
Assay type: physicochemical
EXPERIMENTAL CONTEXT: powdered, 20°±5° C., within 30 minutes, read-out: Amount (ml) of water required to dissolve 1 g of the subject compounds (converted)
REPORTED PROPERTY: solubility at 0.5 h (mg/mL)
A number alone suffices; assume mg/mL.

Value of solubility at 0.5 h reported for the compound COC(=O)C1=C(C)NC(C)=C(C(=O)OCC(C)(C)CN2CCN(CCC#N)CC2)C1c1cccc([N+](=O)[O-])c1 (stereo not drawn) is 500

Value of solubility at 0.5 h reported for the compound C#CCN1CCN(CC(C)(C)COC(=O)C2=C(C)NC(C)=C(C(=O)OC)C2c2cccc([N+](=O)[O-])c2)CC1 (stereo not drawn) is 500

Value of solubility at 0.5 h reported for the compound C#CCCCN1CCN(CC(C)(C)COC(=O)C2=C(C)NC(C)=C(C(=O)OC)C2c2cccc([N+](=O)[O-])c2)CC1.Cl.Cl (stereo not drawn) is 500
